Below: a set of entries, each annotated with reported EC50.
Biological target: rat GIP receptor (rGIPr) (Rattus norvegicus, UniProt P43219)
Construct: expressed in transfected cells; host or cells: HEK293s or CHO cells
Sequence (P43219 19-455): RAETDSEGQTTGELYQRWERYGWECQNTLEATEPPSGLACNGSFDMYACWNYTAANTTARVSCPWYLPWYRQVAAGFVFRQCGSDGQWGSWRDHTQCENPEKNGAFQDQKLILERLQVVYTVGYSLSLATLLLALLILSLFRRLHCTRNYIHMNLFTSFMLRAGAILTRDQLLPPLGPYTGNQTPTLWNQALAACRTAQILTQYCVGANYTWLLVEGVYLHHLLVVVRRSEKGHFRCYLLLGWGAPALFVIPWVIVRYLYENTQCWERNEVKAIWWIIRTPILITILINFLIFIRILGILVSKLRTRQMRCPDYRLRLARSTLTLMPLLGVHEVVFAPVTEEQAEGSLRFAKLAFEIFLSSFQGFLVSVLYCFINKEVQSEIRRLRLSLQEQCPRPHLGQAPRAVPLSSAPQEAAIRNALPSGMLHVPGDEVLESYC
Test: BSA-cAMP assay, cells expressing rat GIP receptor
Format: cell-based
Conditions: Batch 1; BSA-cAMP assay; read-out: rGIPr cAMP activity EC50
Report the value in nM with no unit label.

- IP412: Fc fusion, IgG1-TM, SEQ ID NO:387; agonist peptide YSEGTFTSDYSKLLEEEANRLFIEWLLAGG (YSEGTFTSDYSKLLEEEANRLFIEWLLAGGGGGGSGGGGSGGGGSGGGGSATHTCPPC): 0.018
- IP395 (YSEGTFTSDYSKLLERQAIDEFIAHLLKGGGGGGGSGGGGSGGGGSGGGGSACPPC): 0.063
- IP314: Fc fusion, IgG1-TM(ΔK), SEQ ID NO:431; agonist peptide YSEGTFISDYSKLLAAAAVRDFVNWLLAGG (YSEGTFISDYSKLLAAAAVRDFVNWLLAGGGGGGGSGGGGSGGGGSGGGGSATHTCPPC): 0.88

Okay, next one:
Q) Look up EC50: IP368 (YSEGTFTSDYRQAIDRQAIDEFIAWLLKGGGGGGGSGGGGSGGGGSGGGGSACPPC)
A) 0.22

====

Target: human GLP-1 receptor (hGLP-1r) (Homo sapiens)
Construct: expressed in transfected cells
Sequence (P43220 24-463): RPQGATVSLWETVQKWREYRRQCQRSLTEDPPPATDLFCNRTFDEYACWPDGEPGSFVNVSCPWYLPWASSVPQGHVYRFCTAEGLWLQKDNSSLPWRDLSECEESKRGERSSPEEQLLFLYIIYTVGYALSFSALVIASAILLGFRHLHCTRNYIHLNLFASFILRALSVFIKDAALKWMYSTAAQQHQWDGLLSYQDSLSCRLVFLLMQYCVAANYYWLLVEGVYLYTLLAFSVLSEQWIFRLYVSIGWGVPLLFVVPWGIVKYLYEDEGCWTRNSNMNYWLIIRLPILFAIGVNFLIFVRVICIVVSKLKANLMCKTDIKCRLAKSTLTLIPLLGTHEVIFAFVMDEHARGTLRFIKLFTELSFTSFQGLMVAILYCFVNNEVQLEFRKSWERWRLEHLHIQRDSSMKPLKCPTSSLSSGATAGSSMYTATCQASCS
Assay: BSA-cAMP assay, cells expressing human GLP-1 receptor
Format: cell-based
Details: BSA-cAMP assay; batch 1 unless a batch is given; read-out: cAMP activity hGLP1r (EC50)
Ends that are not written are not given here.
readout.name: pEC50
FYI, pEC50 means -log10 of a concentration in mol per litre.

Recorded pEC50, per entry:
* IP289: Fc fusion, IgG1-TM(ΔK), SEQ ID NO:342; agonist peptide YSEGTFTSDYSKLLEKEAERLFIEWLLKGP (YSEGTFTSDYSKLLEKEAERLFIEWLLKGPGGGGGSGGGGSGGGGSGGGGSATHTCPPC) | 8.47
* IP196 (HGEGTFTSDVSSYLEGQAAKEFIAWLVKGAAAGGSGSTASSGSGSATGGGGAPEF; /note=“Description of Artificial Sequence Synthetic Peptide-linker-hinge polypeptide”) | 10.14
* IP193 (HGEGTFTSDVSSYLEGQAAKEFIAWLVKGAAAGGSGSTASSGSGSATGGGGCPPCPAPEF; also: forms dimer via hinge disulfides) | 10.19

Q) Look up pEC50: IP238 (HGEGTFTSDVSSYLEGQAAKEFIAWLVKGGGGGGSGGGGSGGGGSAESKYGPPCPPC; also: forms dimer via hinge disulfides)
A) 10.24

Q) Look up pEC50: IP231 (HGEGTFTSDVSSYLEEQAAKEFIAWLVKGGGGGGSGGGGSGGGGSGGGGSATHTCPPC; also: forms dimer via hinge disulfides)
A) 10.17

Q) Look up pEC50: IP275: Fc fusion, IgG1-TM, SEQ ID NO:332; agonist peptide YSEGTFTSDYSKLLEKEAQRLFIEWLLKGP (YSEGTFTSDYSKLLEKEAQRLFIEWLLKGPGGGGGSGGGGSGGGGSGGGGSATHTCPPC)
A) 9.04

====

Biological target: human GLP-1 receptor (hGLP-1r) (Homo sapiens)
Construct: expressed in transfected cells
Experiment: BSA-cAMP assay, cells expressing human GLP-1 receptor
Assay type: cell-based
Conditions: Batch 1; BSA-cAMP assay; read-out: hGLP1r cAMP activity EC50
Below: a set of entries, each annotated with reported EC50.
Report the value in nM with no unit label.

Recorded EC50, per entry:
- IP359: Fc fusion, IgG1-TM, SEQ ID NO:366; agonist peptide YSEGTFTSDYSKLLEEEAVRLFIEHLLAGG (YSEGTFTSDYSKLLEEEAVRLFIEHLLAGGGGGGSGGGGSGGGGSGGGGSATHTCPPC): 0.061
- IP302 (YSEGTFISDYSIALAAAAQQDFVNWLLAGGGGGGGSGGGGSGGGGSGGGGSATHTCPPC): 26
- IP412: Fc fusion, IgG1-TM, SEQ ID NO:387; agonist peptide YSEGTFTSDYSKLLEEEANRLFIEWLLAGG (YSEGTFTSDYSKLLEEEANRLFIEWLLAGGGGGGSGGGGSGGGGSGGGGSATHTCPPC): 0.073

Q) Look up EC50: IP343 (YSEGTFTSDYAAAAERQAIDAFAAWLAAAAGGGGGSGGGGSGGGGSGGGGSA)
A) 960

====

Below: a set of entries, each annotated with reported EC50.
Biological target: human GIP receptor (hGIPr) (Homo sapiens)
Construct: expressed in transfected cells
Sequence (P48546 22-466): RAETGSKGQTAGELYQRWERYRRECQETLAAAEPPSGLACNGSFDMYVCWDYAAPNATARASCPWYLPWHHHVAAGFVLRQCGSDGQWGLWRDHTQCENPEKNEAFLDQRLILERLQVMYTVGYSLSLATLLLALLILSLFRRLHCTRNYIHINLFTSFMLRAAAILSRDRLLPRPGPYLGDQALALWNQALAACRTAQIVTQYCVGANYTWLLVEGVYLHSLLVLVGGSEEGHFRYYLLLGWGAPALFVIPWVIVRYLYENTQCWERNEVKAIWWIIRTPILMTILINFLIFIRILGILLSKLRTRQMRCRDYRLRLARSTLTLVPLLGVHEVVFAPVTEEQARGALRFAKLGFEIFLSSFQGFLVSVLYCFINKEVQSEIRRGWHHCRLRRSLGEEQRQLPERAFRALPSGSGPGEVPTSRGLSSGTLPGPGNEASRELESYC
Experiment: BSA-cAMP assay, cells expressing human GIP receptor
Type: cell-based
Details: Batch 1; BSA-cAMP assay; read-out: hGIPr cAMP activity EC50
Report the value in nM with no unit label.

Recorded EC50, per entry:
- IP320 (YSEGTFTSDYAAAAEAAAAAAFAAWLAAAAGGGGGSGGGGSGGGGSGGGGSACPPC): 9.6
- IP385 (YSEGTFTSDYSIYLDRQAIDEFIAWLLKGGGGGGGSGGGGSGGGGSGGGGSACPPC): 0.012
- IP396 (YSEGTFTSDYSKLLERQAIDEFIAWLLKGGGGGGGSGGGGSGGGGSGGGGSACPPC): 0.0093

Q) Item IP302 (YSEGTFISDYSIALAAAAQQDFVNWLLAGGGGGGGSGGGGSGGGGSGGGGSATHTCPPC) with human GIP receptor (hGIPr) (Homo sapiens) - EC50?
A) 0.018

Q) Item IP368 (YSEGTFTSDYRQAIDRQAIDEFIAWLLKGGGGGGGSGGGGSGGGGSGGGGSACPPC) with human GIP receptor (hGIPr) (Homo sapiens) - EC50?
A) 0.2

Q) Item IP305: Fc fusion, IgG1-TM(ΔK), SEQ ID NO:430; agonist peptide YSEGTFISDYSIALAAAAVRDFVNWLLAGG (YSEGTFISDYSIALAAAAVRDFVNWLLAGGGGGGGSGGGGSGGGGSGGGGSATHTCPPC) with human GIP receptor (hGIPr) (Homo sapiens) - EC50?
A) 0.26

Q) Item IP311 (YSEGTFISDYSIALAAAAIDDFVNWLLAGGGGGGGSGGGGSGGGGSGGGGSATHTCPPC) with human GIP receptor (hGIPr) (Homo sapiens) - EC50?
A) 0.074

====

Target: mouse GLP-1 receptor (mGLP-1r) (Mus musculus, UniProt O35659)
Construct: expressed in transfected cells; host or cells: HEK293s or CHO cells
Sequence (O35659 22-463): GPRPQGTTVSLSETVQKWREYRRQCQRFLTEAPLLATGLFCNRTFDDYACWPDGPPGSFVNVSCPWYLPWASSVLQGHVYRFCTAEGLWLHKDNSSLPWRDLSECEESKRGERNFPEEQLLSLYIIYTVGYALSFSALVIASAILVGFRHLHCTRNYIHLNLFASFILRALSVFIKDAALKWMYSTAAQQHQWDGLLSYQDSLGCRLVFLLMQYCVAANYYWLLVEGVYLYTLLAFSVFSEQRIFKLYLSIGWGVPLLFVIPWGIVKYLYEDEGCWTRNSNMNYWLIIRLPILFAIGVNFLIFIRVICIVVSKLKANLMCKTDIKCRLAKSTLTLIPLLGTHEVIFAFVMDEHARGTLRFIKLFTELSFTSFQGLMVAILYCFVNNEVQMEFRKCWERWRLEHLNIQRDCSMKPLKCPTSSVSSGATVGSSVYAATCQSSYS
Assay: BSA-cAMP assay, cells expressing mouse GLP-1 receptor
Assay type: cell-based
Conditions: Batch 2; BSA-cAMP assay; read-out: mGLP1r cAMP activity EC50
readout.name: EC50 (nM)
Report the value in nM with no unit label.

Q) Look up EC50: IP396 (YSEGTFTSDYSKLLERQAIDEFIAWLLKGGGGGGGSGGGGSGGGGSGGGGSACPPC)
A) 2.5
